- targetOrSystem: T1, APJ receptor (human, UniProt P35414 1-380)
- T1 sequence (looked up): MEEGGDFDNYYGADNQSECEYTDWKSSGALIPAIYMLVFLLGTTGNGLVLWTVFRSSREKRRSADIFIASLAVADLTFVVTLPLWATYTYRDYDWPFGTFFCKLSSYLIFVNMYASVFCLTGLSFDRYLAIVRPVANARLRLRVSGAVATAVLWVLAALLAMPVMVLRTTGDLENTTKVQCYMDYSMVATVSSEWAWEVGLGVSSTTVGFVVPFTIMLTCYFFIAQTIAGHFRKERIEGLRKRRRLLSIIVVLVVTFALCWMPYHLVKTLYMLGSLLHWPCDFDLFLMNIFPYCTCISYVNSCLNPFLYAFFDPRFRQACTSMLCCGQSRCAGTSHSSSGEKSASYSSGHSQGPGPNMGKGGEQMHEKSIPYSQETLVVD
- assayInfo: cell-based or functional assay
[ ]: non-standard residue; d: D form. pGlu = O=C1CC[C@@H](C(=O)O)N1; dNle = CCCC[C@@H](N)C(=O)O; Aib = CC(C)(N)C(=O)O
assayReadout: hAPJ Ca^2+ Flux EC50 (nM)
Express your answer in nM, writing the number without its unit.

The binder identified as [pGlu]RPR[dL]S[Aib]KGP[dNle][dA][dF]-OH (SMILES CCCC[C@@H](NC(=O)[C@@H]1CCCN1C(=O)CNC(=O)[C@H](CCCCN)NC(=O)C(C)(C)NC(=O)[C@H](CO)NC(=O)[C@@H](CC(C)C)NC(=O)[C@H](CCCNC(=N)N)NC(=O)[C@@H]1CCCN1C(=O)[C@H](CCCNC(=N)N)NC(=O)[C@@H]1CCC(=O)N1)C(=O)N[C@H](C)C(=O)N[C@H](Cc1ccccc1)C(=O)O) [pE-R-P-R-(D-Leu)-S-Aib-K-G-P-nle-a-f-OH] registered its hAPJ Ca^2+ Flux EC50 at 5

FYI, the data here is from patent US10005829B2.
